# Test system: H630 cells
# procedureDetails: Cellular proliferation and viability, CRC cell line panel
# Format: cell-based, human
# measurementSetup: KRAS WT, BRAF WT, APC del, CTNNB1 WT, 3 days post-treatment
measuredMetric: pIC50
pIC50 is defined as minus the log10 of a concentration measured in mol/L.

q: What pIC50 value was documented for this compound, COc1cc(O)c2c(c1)/C=C/C[C@H](O)[C@H](O)C(=O)/C=C\C[C@H](C)OC2=O [5Z-7-oxozeaenol] ?
a: 5.35

----------
# Test system: SW1417 cells
# procedureDetails: Cellular proliferation and viability, CRC cell line panel
# Format: cell-based, human
# measurementSetup: KRAS WT, BRAF V600E, APC del, CTNNB1 WT, 3 days post-treatment
measuredMetric: pIC50
Entry type: numeric. Quantity: pIC50, the -log10 of concentration in molar units.

q: Can you share its pIC50? I mean this molecule: COc1cc(O)c2c(c1)/C=C/C[C@H](O)[C@H](O)C(=O)/C=C\C[C@H](C)OC2=O [5Z-7-oxozeaenol]
a: 5.91

Where these numbers come from: patent US20140243403A1
